test system: fundus strips (stomach muscularis); experiment: Fundus strip length after acetylcholine-induced contraction; parameters: species or system domestic pigs; settings: 70 mg/L + acetylcholine 10^-4 M, 37° C., time 10 min
Marks after values point to notes of the source that are not given here.
MEASUREMENT NAME: Strip length (as percentage of baseline)

INSERT INTO measurements (compound, target_or_test_system, reported_measurement) VALUES
  ('CCCCN1CCCCC1C(=O)Nc1c(C)cccc1C (centres unmarked)', 'fundus strips (stomach muscularis)', '107.1*** percentage of baseline'),
  ('CCN(CC)CC(=O)Nc1c(C)cccc1C', 'fundus strips (stomach muscularis)', '103.6* percentage of baseline'),
  ('CCCNC(C)C(=O)Nc1ccccc1C (centres unmarked)', 'fundus strips (stomach muscularis)', '105.8** percentage of baseline'),
  ('CN(C(=O)CN(CCO)CC(=O)N(C)C(C)(C)Cc1ccccc1)C(C)(C)Cc1ccccc1', 'fundus strips (stomach muscularis)', '104.8* percentage of baseline'),
  ('CCOC(=O)c1ccc(N)cc1', 'fundus strips (stomach muscularis)', '102.3* percentage of baseline');
